- Study target: TACE enzyme (Homo sapiens)
- Sequence (P78536 215-824 limits assumed): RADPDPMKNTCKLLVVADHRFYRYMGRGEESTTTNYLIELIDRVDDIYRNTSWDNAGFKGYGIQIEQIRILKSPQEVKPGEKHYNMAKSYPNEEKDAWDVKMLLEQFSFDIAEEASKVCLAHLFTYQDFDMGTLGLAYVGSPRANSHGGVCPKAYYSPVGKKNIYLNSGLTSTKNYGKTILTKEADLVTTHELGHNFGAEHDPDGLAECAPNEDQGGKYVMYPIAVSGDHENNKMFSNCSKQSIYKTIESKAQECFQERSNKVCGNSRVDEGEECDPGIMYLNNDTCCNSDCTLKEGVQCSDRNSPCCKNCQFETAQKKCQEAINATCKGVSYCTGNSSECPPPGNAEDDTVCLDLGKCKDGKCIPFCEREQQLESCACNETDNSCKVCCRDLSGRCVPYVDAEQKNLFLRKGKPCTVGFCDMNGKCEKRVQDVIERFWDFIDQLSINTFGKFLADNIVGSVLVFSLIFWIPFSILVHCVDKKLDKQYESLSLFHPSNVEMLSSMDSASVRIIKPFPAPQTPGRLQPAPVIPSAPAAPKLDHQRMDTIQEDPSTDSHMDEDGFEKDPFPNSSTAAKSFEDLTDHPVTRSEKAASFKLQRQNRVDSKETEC
- Assay details: Enzymatic assay for TACE inhibition
- Assay type: biochemical
- Reported conditions: 10 μM compound
Measured metric: % TACE inhibition at 10 μM (%)

• O=C(NO)[C@H](CNS(=O)(=O)c1ccc(OCc2ccccc2)cc1)N1CCCC1 [Example 2] = 95
• Cc1cc(COc2ccc(S(=O)(=O)NC[C@@H](C(=O)NO)N3CCCCC3)cc2)c2ccccc2n1.Cl.Cl [Example 15] = 98
• Cc1cc(COc2ccc(S(=O)(=O)NC[C@@H](C(=O)NO)N3CCOCC3)cc2)c2ccccc2n1 [Example 14] = 91
• O=C(NO)[C@H](CNS(=O)(=O)c1ccc(OCc2ccccc2)cc1)N1CCOCC1 [Example 7] = 98
• O=C(NO)[C@H](CNS(=O)(=O)c1ccc(OCc2ccc3ccccc3c2)cc1)N1CCCCC1 [Example 5] = 97
• O=C(NO)[C@H](CNS(=O)(=O)c1ccc(OCc2cc(Cl)cc(Cl)c2)cc1)N1CCCCC1 [Example 9] = 99
• O=C(NO)[C@H](CNS(=O)(=O)c1ccc(OCc2ccc(Cl)c(Cl)c2)cc1)N1CCCCC1 [Example 6] = 97
• Cc1cc(COc2ccc(S(=O)(=O)NC[C@@H](C(=O)NO)N3CCCCC3)cc2)c2ccccc2n1 [Example 8] = 99
• O=C(NO)[C@H](CNS(=O)(=O)c1ccc(OCc2ccc(F)cc2)cc1)N1CCCCC1 [Example 3] = 97
• O=C(NO)[C@H](CNS(=O)(=O)c1ccc(OCc2ccccc2)cc1)N1CCCCC1 [Example 1] = 98

meta.source: patent US8772478B2
